meta.source: the supplement of paper PMC9732359

test: protein stability index of a GFP-peptide fusion (yeast GPS) (PSI 1-4); higher = more stable; sorted into four equal gates, so the index is relative within each strain; settings: ubr1∆
Would you mind labelling by protein stability index? At or over 2 is Criterion met, under is Criterion not met.

Answered cases to consult:
YALFLKALRRKIYINLA [SSN2] = Criterion not met
VSITDAPKIHILDPSTE [YMR129W/POM152] = Criterion not met
PIPFEFQAVIQKSINHP [SNF2] = Criterion met
LILTSHNMKAYYKKFLI [BRR2] = Criterion met
ADCQAELTKTKSSLYSA [YIL149C/MLP2] = Criterion met

Ask: Evaluate ERYYELAFDKLNVPVFQ [ARP7] : protein stability index at minimum 2?
Result: Criterion met

Ask: Evaluate GDYDSHDISRYVRAKFL [PRP8] : protein stability index at minimum 2?
Result: Criterion not met
